Source of measurements: patent US20060069132A1

Some compounds, each annotated with its measured Plant response rating, Pigweed.
# Tested on: pigweed
# methodNotes: Test C pre-/postemergence herbicide test
# Type: in vivo, Amaranthus retroflexus
# conditionsUsed: postemergence; 62 g ai/ha; scale 0 to 100
metric: Plant response rating, Pigweed

compound: CCOC(=O)c1cccc(NC(=O)c2nn(C(C)(C)CC)nc2CC)c1 [Compound 375]
val: 80

compound: CCCCOC(=O)c1cccc(NC(=O)c2cc(C(C)(C)C)nn2CC)c1 [Compound 86]
val: 100

compound: CCn1nc(C(C)(C)C)cc1C(=O)Nc1cccc(OC(F)F)c1 [Compound 332]
val: 85

compound: CC(=NO)c1cccc(NC(=O)c2cc(C(C)(C)C)nn2CCF)c1 [Compound 115]
val: 100

----------
# Tested on: wheat
# methodNotes: Test B postemergence herbicide test
# Type: in vivo, Triticum aestivum
# Set-up: key: 0 = no effect, 100 = complete control
# conditionsUsed: postemergence, 125 g ai/ha; scale 0 to 100

lineNotation: CCN(CC)C(=O)c1cccc(NC(=O)c2nn(C(C)(C)C)nc2C)n1
Wheat plant response rating: 0
--
lineNotation: CCc1nn(C(C)C)nc1C(=S)Nc1cccc(C(=S)N(C)C)c1
Wheat plant response rating: 0
--
lineNotation: CCOC(=O)c1cccc(NC(=O)c2nn(C(C)(C)C)nc2Br)c1
Wheat plant response rating: 50
--
lineNotation: CCNC(=O)c1cccc(NC(=O)c2nn(C(C)(C)C)nc2Br)c1
Wheat plant response rating: 40

----------
# System: cocklebur
# methodNotes: Test C pre-/postemergence herbicide test
# Format: in vivo, Xanthium strumarium
# conditionsUsed: Preemergence, 500 g ai/ha; scale 0 to 100, 0 no effect, 100 complete control

compound: CCN(C)C(=O)c1ccc(F)c(NC(=O)C2CC(C(C)(C)C)=NN2CC)c1 (racemic)
Cocklebur plant response rating: 75

compound: C#CCn1nc(C(C)(C)C)cc1C(=O)Nc1cccc(C(=O)NCC)c1
Cocklebur plant response rating: 80

compound: CC(=NO)c1cccc(NC(=O)c2cc(C(C)(C)C)nn2CCF)c1
Cocklebur plant response rating: 100

compound: CC(=NO)c1cccc(NC(=O)c2sc(C(C)(C)C)nc2C)c1
Cocklebur plant response rating: 0

compound: CCn1nc(C(C)(C)C)cc1C(=O)Nc1cccc(C(N)=O)n1
Cocklebur plant response rating: 75

compound: CCn1nc(C(C)(C)C)cc1C(=O)Nc1cccc2c1CCN(C1CC1)C2=O
Cocklebur plant response rating: 0

----------
Foxtail, Giant plant response rating (0 to 100 scale) values, listed per item
# Test system: giant foxtail
# methodNotes: Test B pre-/postemergence herbicide test
# Format: in vivo, Setaria faberi
# conditionsUsed: 125 g ai/ha; 0 = no effect, 100 = complete control; preemergence
# Protocol: […] At the same time, plants selected from these crop and weed species and also blackgrass (Alopecurus myosuroides Huds.), wheat (Triticum aestivum L.) and wild oat (Avena fatua L.) were treated with postemergence applications of test chemicals formulated in the same manner. […] Treated plants and controls were maintained in a greenhouse for 13 to 15 days, after which time all species were compared to controls and visually evaluated. […]
metric: Foxtail, Giant plant response rating (0 to 100 scale)

lineNotation: CCNC(=O)c1cccc(NC(=O)c2sc(C(C)(C)C)nc2C)c1
targetUnderTest: giant foxtail
val: 20

lineNotation: CCNC(=O)c1cccc(NC(=O)c2sc(C(C)(C)C)nc2CC)n1
targetUnderTest: giant foxtail
val: 20

lineNotation: C=CCNC(=O)c1ccc(F)c(NC(=O)c2sc(CC)nc2C(C)(C)C)c1
targetUnderTest: giant foxtail
val: 0

lineNotation: CCN(CC)C(=O)c1cccc(NC(=O)c2nn(C(C)(C)C)cc2Br)c1
targetUnderTest: giant foxtail
val: 0

lineNotation: COC(=O)c1cccc(NC(=O)c2sc(C(C)(C)C)nc2C)c1
targetUnderTest: giant foxtail
val: 0

lineNotation: CCn1nc(C(C)(C)C)cc1C(=O)Nc1cncc(C(=O)N(C)C)c1
targetUnderTest: giant foxtail
val: 0

lineNotation: CCOC(=O)c1cccc(NC(=O)c2cn(C(C)(C)C)nc2CC)c1
targetUnderTest: giant foxtail
val: 0

lineNotation: CCNC(=O)c1ccc(OC)c(NC(=O)c2cc(C(C)(C)C)nn2CC)n1
targetUnderTest: giant foxtail
val: 80

lineNotation: CCc1cn(C(C)(C)C)nc1C(=O)Nc1cc(C(=O)N(CC)CC)ccn1
targetUnderTest: giant foxtail
val: 0

----------
# Tested on: woolly cupgrass
# methodNotes: Test C pre-/postemergence herbicide test
# Type: in vivo, Eriochloa villosa
# conditionsUsed: 500 g ai/ha; scale 0 to 100 (0 no effect, 100 complete control); visual, 12 to 14 days; preemergence
metric: Plant response rating, Cupgrass, Woolly

molecule: CCNC(=O)c1cccc(NC(=O)c2sc(C(C)(C)C)nc2CC)n1 [Compound 213]
targetUnderTest: woolly cupgrass
metric: Plant response rating, Cupgrass, Woolly
val: 30
//
molecule: CCn1nc(C(C)(C)C)cc1C(=O)Nc1cccc(OC(F)F)c1 [Compound 332]
targetUnderTest: woolly cupgrass
metric: Plant response rating, Cupgrass, Woolly
val: 10
//
molecule: CCNC(=O)c1cccc(NC(=O)c2cc(C3(C)CC3)nn2CC)c1 [Compound 306]
targetUnderTest: woolly cupgrass
metric: Plant response rating, Cupgrass, Woolly
val: 50
//
molecule: CCC1=NN(C(C)(C)C)CC1C(=O)Nc1cc(C(=O)N(C)C)ccc1F (racemic) [Compound 343]
targetUnderTest: woolly cupgrass
metric: Plant response rating, Cupgrass, Woolly
val: 100
//
molecule: CCn1nc(C2(C)CC2)cc1C(=O)Nc1cc(C(=O)N(C)C)ccc1F [Compound 299]
targetUnderTest: woolly cupgrass
metric: Plant response rating, Cupgrass, Woolly
val: 100
//
molecule: Cc1nn(C(C)(C)C)nc1C(=O)Nc1cccc(C(=O)N2CC=CC2)c1 [Compound 393]
targetUnderTest: woolly cupgrass
metric: Plant response rating, Cupgrass, Woolly
val: 100

----------
# Test system: large crabgrass
# methodNotes: Test A pre-/postemergence herbicide test
# Type: in vivo, Digitaria sanguinalis
# conditionsUsed: Postemergence, 500 g ai/ha; 0 to 100 scale, 0 no effect, 100 complete control
Crabgrass, Large plant response rating values by entry
metric: Crabgrass, Large plant response rating

molecule: CC(=NO)c1cc(NC(=O)c2cc(C(C)(C)C)nn2C)ccc1F
val: 20
--
molecule: CCC(C)c1cc(C(=O)Nc2cccc(C(C)=NO)c2)n(C)n1 (stereo not drawn)
val: 50
--
molecule: CCc1nn(C(C)(C)C)cc1C(=O)Nc1cc(C(=O)N(CC)CC)ccc1F
val: 20

----------
This section presents molecules with their documented Plant response rating, Nutsedge, Yellow values.
# Tested on: yellow nutsedge
# methodNotes: Test C pre-/postemergence herbicide test
# Assay type: in vivo, Cyperus esculentus
# conditionsUsed: 250 g ai/ha; scale 0-100; preemergence
metric: Plant response rating, Nutsedge, Yellow

molecule: CCN(C)C(=O)c1ccc(F)c(NC(=O)C2CC(C(C)(C)C)=NN2CC)c1 (racemic)
metric: Plant response rating, Nutsedge, Yellow
val: 50

molecule: CCOC(=O)c1cccc(NC(=O)c2nn(C(C)(C)CC)nc2CC)c1
metric: Plant response rating, Nutsedge, Yellow
val: 0

molecule: CCNC(=O)c1cccc(NC(=O)c2cc(C3(C)CC3)nn2CC)c1
metric: Plant response rating, Nutsedge, Yellow
val: 10

molecule: CCC1=NN(C(C)(C)C)CC1C(=O)Nc1cc(C(=O)N(C)C)ccc1F (racemic)
metric: Plant response rating, Nutsedge, Yellow
val: 60

----------
# System: ducksalad
# methodNotes: Test B flooded paddy test
# Type: in vivo, Heteranthera limosa
# conditionsUsed: 1000 g ai/ha, scale 0 to 100 (0 no effect, 100 complete control)

molecule: CCNC(=O)c1ccc(OC)c(NC(=O)c2cc(C(C)(C)C)nn2CC)n1 [Compound 266]
targetUnderTest: ducksalad
Ducksalad plant response rating: 90

molecule: CCOC(=O)c1cccc(NC(=O)c2nn(C(C)(C)CC)nc2CC)c1 [Compound 375]
targetUnderTest: ducksalad
Ducksalad plant response rating: 20

molecule: CCc1nn(C(C)(C)C)nc1C(=O)Nc1cccc(C(=S)N(C)C)c1 [Compound 395]
targetUnderTest: ducksalad
Ducksalad plant response rating: 90

molecule: C#CCNC(=O)c1cccc(NC(=O)c2nn(C(C)(C)C)nc2C)c1 [Compound 394]
targetUnderTest: ducksalad
Ducksalad plant response rating: 80

----------
# Test system: morningglory
# methodNotes: Test A pre-/postemergence herbicide test
# Format: in vivo, Ipomoea spp.
# conditionsUsed: Preemergence, 500 g ai/ha; visual rating, 0 to 100 scale (0 no effect, 100 complete control)
Some compounds, each annotated with its measured Morningglory plant response rating.

lineNotation: C=Cn1nc(C(C)(C)C)cc1C(=O)Nc1cccc(C(C)=O)c1
Morningglory plant response rating: 30
--
lineNotation: C=Cn1nc(C(C)(C)C)cc1C(=O)Nc1cccc(C(=O)NCCCl)c1
Morningglory plant response rating: 10
--
lineNotation: CCCCOC(=O)c1cccc(NC(=O)c2cc(C(C)(C)C)nn2CC)c1
Morningglory plant response rating: 0
--
lineNotation: CCOC(=O)c1ccc(F)c(NC(=O)c2cc(C(C)(C)C)nn2CC)c1
Morningglory plant response rating: 20
--
lineNotation: CCn1nc(C(C)(C)C)cc1C(=O)Nc1cccc(C(=O)OCC(F)(F)F)c1
Morningglory plant response rating: 30
--
lineNotation: Cn1nc(C(C)(C)C)cc1C(=O)Nc1cccc2c1CCC2=NO
Morningglory plant response rating: 0
--
lineNotation: CC(=NO)c1cc(NC(=O)c2cc(C(C)(C)C)nn2C)ccc1F
Morningglory plant response rating: 35
--
lineNotation: CCNC(=O)c1cc(NC(=O)c2cc(C(C)(C)C)nn2CC)ccc1F
Morningglory plant response rating: 20
--
lineNotation: CCCOC(=O)c1cccc(NC(=O)c2cc(C(C)(C)C)nn2CC)c1C
Morningglory plant response rating: 0
